src = patent US20230295301A1

- TARGET_OR_SYSTEM: T1, huCTLA-4 ECD (his-tag) (human, UniProt P16410 37-162)
- T1 construct: also called HX1 hCTLA4 his; HX1 huCTLA4 his; not shown: his-tag
- T1 sequence: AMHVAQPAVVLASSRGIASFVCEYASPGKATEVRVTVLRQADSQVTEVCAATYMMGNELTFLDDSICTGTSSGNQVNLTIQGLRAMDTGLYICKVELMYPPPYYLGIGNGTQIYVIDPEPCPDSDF
- ASSAY_PROCEDURE: ELISA, coated huCTLA-4 his
MEASURED_PROPERTY: binding result

HuJS007-59 (antibody, V domains shown, 4B7 VH2-3 + 4B7VL5; constant regions not specified) VH: QVQLQESGPGLVKPSETLSLTCTVSGYSITSGYYWNWIRQPPGKGLEWIGYIGYDGSNNYNPSLKSRVTISRDTSKNQFSLKLSSVTAADTAVYYCARDYYSGYFDSWGQGTTLTVSS VL: DIQMTQSPSSLSASVGDRVTITCQASQNVGTYVAWYQQKPGKAPKPLIYSTSYRYSGVPSRFSGSGSGTDFTFTISSLQPEDIATYFCHQYDTYPLTFGAGTKLELK; binds
HuJS007-71 (antibody, V domains shown, 4B7 VH2-4 + 4B7VL8; constant regions not specified) VH: QVQLQESGPGLVKPSQTLSLTCAVSAYSITSGYYWNWIRQHPGKGLEWIGYIGYDGSNNYNPSLKSRVTISRDTSKNQFSLKLSSVTAADTAVYYCARDYYSGYFDSWGQGTTLTVSS VL: DIVMTQSPDSLAVSLGERATINCKASQNVGTYVAWYQQKPGQPPKPLIYSTSYRYSGVPDRFSGSGSGTDFTLTISSLQAEDVAVYFCHQYDTYPLTFGQGTKLEIK; binds
huJS007-106 (antibody, human IgG1, kappa, V domains shown) VH: QVQLQESGPGLVKPSQTLSLTCAVSGYSITSGYYWNWIRQPPGKGLEWIGYIGYDGSNNYNPSLKNRVTMSVDTSKNQFSLKLSSVTAVDTAVYYCARDYYSGYFDSWGQGTTVTVSS VL: EIVMTQSPATLSVSPGERATLSCRASQNVGTYVAWYQQKPGQAPRPLIYSTSYRYSGIPARFSGSGSGTEFTLTISSLQSEDFAVYYCHQYDTYPLTFGQGTKLEIKR; binds
